Entries and their viability, T/C values follow.
System: 388556-164-R-J1-PDC complex spheroid viability;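 note: spheroids exposed to compound for 7 days before readout; 100% = DMSO vehicle control luminescence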
Assay: Anticancer human tumor 388556-164-R-J1-PDC patient-derived colon adenocarcinoma cell line growth inhibition [RAS]
Settings: second compound 0.003 µM; first compound 10 µM; stronger effect = lower value
From the text: RAS pathway inhibitors in Combinations in Complex Spheroids A high-throughput screen of multi-cell type tumor spheroids was designed to identify active combinations of RAS pathway inhibitors and targeted small molecules. Complex spheroids include a stromal component modeled by human endothelial cells (HUVEC) and fibroblasts modeled by human mesenchymal stem cells (MSCs). […] Compounds. […] If the clinical Cmax for an agent had not been determined, the highest concentration tested was 10 microM. […]

Some solved entries appear below for comparison.
>>> result("CC(=O)OC12COC1CC(O)C1(C)C(=O)C(O)C3=C(C)C(OC(=O)C(O)C(NC(=O)OC(C)(C)C)c4ccccc4)CC(O)(C(OC(=O)c4ccccc4)C21)C3(C)C (stereo not given) + CCn1c(-c2cc(N3CCN(C)CC3)cnc2C(C)OC)c2c3cc(ccc31)-c1csc(n1)CC(NC(=O)C1CC1C)C(=O)N1CCCC(N1)C(=O)OCC(C)(C)C2")
"50.4%"
>>> result("NC1c2ccccc2OC12CCN(c1cnc3c(N4CCCc5ncccc54)n[nH]c3n1)CC2 (stereo not given) + CCn1c(-c2cccnc2C(C)OC)c2c3cc(ccc31)N1CCOC(CC(NC(=O)C(C(C)C)N(C)C(=O)C3(F)CCN(C(=O)C#CC(C)(C)N(C)C)CC3)C(=O)N3CCCC(N3)C(=O)OCC(C)(C)C2)C1")
"33%"
>>> result("CC(Nc1ccc2c(c1)OCCn1cc(N3C(=O)OCC3C(F)F)nc1-2)C(N)=O (stereo not given) + CCn1c(-c2cc(N3CCN(C)CC3)cnc2C(C)OC)c2c3cc(ccc31)-c1csc(n1)CC(NC(=O)C1CC1C)C(=O)N1CCCC(N1)C(=O)OCC(C)(C)C2")
"40.2%"
>>> result("CCC(CC)c1cc(NC2CCC(N)C2)n2nccc2n1 (stereo not given) + CCn1c(-c2cc(N3CCN(C)CC3)cnc2C(C)OC)c2c3cc(ccc31)-c1csc(n1)CC(NC(=O)C1CC1C)C(=O)N1CCCC(N1)C(=O)OCC(C)(C)C2")
"9.94%"
>>> result("CC1(O)CCCC1n1c(=O)c(C(F)F)cc2cnc(NC3CCN(S(C)(=O)=O)CC3)nc21 (stereo not given) + CCn1c(-c2cc(N3CCN(C)CC3)cnc2C(C)OC)c2c3cc(ccc31)-c1csc(n1)CC(NC(=O)C1CC1C)C(=O)N1CCCC(N1)C(=O)OCC(C)(C)C2")
"62.8%"
>>> result("CC(Nc1ccc2c(c1)OCCn1cc(N3C(=O)OCC3C(F)F)nc1-2)C(N)=O (stereo not given) + CCn1c(-c2cccnc2C(C)OC)c2c3cc(ccc31)N1CCOC(CC(NC(=O)C(C(C)C)N(C)C(=O)C3(F)CCN(C(=O)C#CC(C)(C)N(C)C)CC3)C(=O)N3CCCC(N3)C(=O)OCC(C)(C)C2)C1")
"50.1%"
>>> result("CC(=O)OC12COC1CC(O)C1(C)C(=O)C(O)C3=C(C)C(OC(=O)C(O)C(NC(=O)OC(C)(C)C)c4ccccc4)CC(O)(C(OC(=O)c4ccccc4)C21)C3(C)C (stereo not given) + CCn1c(-c2cccnc2C(C)OC)c2c3cc(ccc31)N1CCOC(CC(NC(=O)C(C(C)C)N(C)C(=O)C3(F)CCN(C(=O)C#CC(C)(C)N(C)C)CC3)C(=O)N3CCCC(N3)C(=O)OCC(C)(C)C2)C1")
"74.4%"
>>> result("CCC(CC)c1cc(NC2CCC(N)C2)n2nccc2n1 (stereo not given) + CCn1c(-c2cccnc2C(C)OC)c2c3cc(ccc31)N1CCOC(CC(NC(=O)C(C(C)C)N(C)C(=O)C3(F)CCN(C(=O)C#CC(C)(C)N(C)C)CC3)C(=O)N3CCCC(N3)C(=O)OCC(C)(C)C2)C1")
"31.9%"

Reported viability, T/C for C[C@@H](NC(=O)c1ncnc(N)c1Cl)c1ncc(C(=O)Nc2cc(C(F)(F)F)c(Cl)cn2)s1 + CCn1c(-c2cc(N3CCN(C)CC3)cnc2C(C)OC)c2c3cc(ccc31)-c1csc(n1)CC(NC(=O)C1CC1C)C(=O)N1CCCC(N1)C(=O)OCC(C)(C)C2 was 105%

Reported viability, T/C for Cc1nc(N2CCC3(CC2)COC(C)C3N)c(CO)nc1Sc1ccnc(N)c1Cl (stereo not given) + CCn1c(-c2cc(N3CCN(C)CC3)cnc2C(C)OC)c2c3cc(ccc31)-c1csc(n1)CC(NC(=O)C1CC1C)C(=O)N1CCCC(N1)C(=O)OCC(C)(C)C2 was 32.8%

Reported viability, T/C for CC(C)NCC(C(=O)N1CCN(c2ncnc3c2C(C)CC3O)CC1)c1ccc(Cl)cc1 (stereo not given) + CCn1c(-c2cccnc2C(C)OC)c2c3cc(ccc31)N1CCOC(CC(NC(=O)C(C(C)C)N(C)C(=O)C3(F)CCN(C(=O)C#CC(C)(C)N(C)C)CC3)C(=O)N3CCCC(N3)C(=O)OCC(C)(C)C2)C1 was 81.8%

Reported viability, T/C for Cc1nc(N2CCC3(CC2)COC(C)C3N)c(CO)nc1Sc1ccnc(N)c1Cl (stereo not given) + CCn1c(-c2cccnc2C(C)OC)c2c3cc(ccc31)N1CCOC(CC(NC(=O)C(C(C)C)N(C)C(=O)C3(F)CCN(C(=O)C#CC(C)(C)N(C)C)CC3)C(=O)N3CCCC(N3)C(=O)OCC(C)(C)C2)C1 was 44.6%

Reported viability, T/C for CC(C)NCC(C(=O)N1CCN(c2ncnc3c2C(C)CC3O)CC1)c1ccc(Cl)cc1 (stereo not given) + CCn1c(-c2cc(N3CCN(C)CC3)cnc2C(C)OC)c2c3cc(ccc31)-c1csc(n1)CC(NC(=O)C1CC1C)C(=O)N1CCCC(N1)C(=O)OCC(C)(C)C2 was 88%

Reported viability, T/C for C[C@@H](NC(=O)c1ncnc(N)c1Cl)c1ncc(C(=O)Nc2cc(C(F)(F)F)c(Cl)cn2)s1 + CCn1c(-c2cccnc2C(C)OC)c2c3cc(ccc31)N1CCOC(CC(NC(=O)C(C(C)C)N(C)C(=O)C3(F)CCN(C(=O)C#CC(C)(C)N(C)C)CC3)C(=O)N3CCCC(N3)C(=O)OCC(C)(C)C2)C1 was 96.7%

Reported viability, T/C for NC1c2ccccc2OC12CCN(c1cnc3c(N4CCCc5ncccc54)n[nH]c3n1)CC2 (stereo not given) + CCn1c(-c2cc(N3CCN(C)CC3)cnc2C(C)OC)c2c3cc(ccc31)-c1csc(n1)CC(NC(=O)C1CC1C)C(=O)N1CCCC(N1)C(=O)OCC(C)(C)C2 was 22.6%
